B1: ATL3 (parent)
chain: HFKKTKKMGGKDFSFRYQQELEEE

- Variants of: B1
- procedure details: protein stability index of a GFP-peptide fusion (GPS, HEK-293T) (PSI 1-6); higher = more stable;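 further: lentivirally expressed fusions sorted by FACS into six bins by GFP to DsRed ratio, PSI derived from sequencing read proportions per bin multiplied by bin number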
- assay conditions: c terminus: a fixed tail appended
quantity name: protein stability index
Answer with a number only.

A selection of reference data follows.
INSERT INTO assay_data (mutation_label, readout_number) VALUES
  ('E24N', 3.49),
  ('K3W', 1.02),
  ('K11C', 2.17),
  ('H1P', 3.17);

I'd like to know its protein stability index. The variant in question is K6M 2.51

Give the measured protein stability index of F13G . 5.01

State the recorded protein stability index for this entry: F2H 1.62

Need protein stability index of F2R , thanks. 2.64

Need protein stability index, item Q19S 2.5

Return reported protein stability index; argument: K11H 2.11

Param item = E20R ; retrieve measured protein stability index. 3.96

Reported protein stability index, variant E24D : ____ 2.28

Consider the variant G10V and give its measured protein stability index. 2.04

Given the variant K7N , what is its reported protein stability index? 2.11

Any idea what its protein stability index is? The variant is E24C 2.74

Reported protein stability index, variant T5F : ____ 2.44

// data source = the supplement of paper PMC10567573
